# TARGET_ENTITY: PSMA-expressing C4-2 cells (Homo sapiens)
# Construct: PSMA-expressing C4-2 cells (ATCC, Cat. No. CRL-3314) were cultured in RPMI-1640; host or cells: C4-2 cells
# Sequence (Q04609 whole entry): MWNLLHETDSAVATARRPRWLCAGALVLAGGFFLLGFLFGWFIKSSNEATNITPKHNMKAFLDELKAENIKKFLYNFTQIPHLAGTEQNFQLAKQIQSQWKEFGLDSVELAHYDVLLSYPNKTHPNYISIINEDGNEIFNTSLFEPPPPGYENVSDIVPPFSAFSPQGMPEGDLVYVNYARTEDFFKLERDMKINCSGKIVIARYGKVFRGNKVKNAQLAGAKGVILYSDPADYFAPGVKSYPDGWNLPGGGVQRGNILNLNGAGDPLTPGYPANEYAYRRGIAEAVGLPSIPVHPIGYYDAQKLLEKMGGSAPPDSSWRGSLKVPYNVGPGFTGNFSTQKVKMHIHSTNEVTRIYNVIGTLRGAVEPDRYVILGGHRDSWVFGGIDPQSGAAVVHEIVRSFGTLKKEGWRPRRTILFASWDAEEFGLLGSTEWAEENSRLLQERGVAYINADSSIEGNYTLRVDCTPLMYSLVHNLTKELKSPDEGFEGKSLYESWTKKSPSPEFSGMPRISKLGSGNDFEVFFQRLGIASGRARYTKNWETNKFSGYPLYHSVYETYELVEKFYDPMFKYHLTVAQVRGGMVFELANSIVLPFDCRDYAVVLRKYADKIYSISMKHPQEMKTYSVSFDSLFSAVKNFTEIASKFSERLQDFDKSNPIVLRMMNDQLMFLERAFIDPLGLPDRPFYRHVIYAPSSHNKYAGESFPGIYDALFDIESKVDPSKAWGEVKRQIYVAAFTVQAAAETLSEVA
# PROCEDURE_SUMMARY: FACS binding assay (competition with 50 nM PSM-0183)
# MEASUREMENT_CONDITIONS: FACS binding, C4-2 cells, competition with 50 nM PSM-0183; category; read-out: pIC50 [C4-2] CAT (converted)
# Method: In order to determine binding of compounds according to the present invention to PSMA-expressing cells, a FACS binding assay was established. PSMA-expressing C4-2 cells (ATCC, Cat. No. CRL-3314) were cultured in RPMI-1640 (Pan Biotech, Cat. No. P04-18050) including 10% fetal calf serum (Biochrom) and 100 U/ml penicillin and 100 μg/mL streptomycin (Sigma, Cat. No. P0781). […]
Bridge positions count the residues as written; N and C are the ends. Square brackets hold non-standard residues; d marks the D form. Peptide text beside a SMILES is read from it. * marks the point of attachment. TtdsdLys(DOTA)NH2 = NC(=O)[C@@H](CCCCNC(=O)CN1CCN(CC(=O)O)CCN(CC(=O)O)CCN(CC(=O)O)CC1)NC(=O)CCC(=O)NCCCOCCOCCOCCCN*; Tle = CC(C)(C)[C@H](N)C(=O)O; Aib = CC(C)(N)C(=O)O
Give IC50 for every item shown.

Request: Sample CC(=O)N[C@H](C(=O)NC(C)(C)C(=O)N[C@@H](Cc1ccccc1)C(=O)N[C@H]1CSSC[C@@H](C(=O)N[C@H](C(=O)N[C@H](C(=O)N[C@@H](CC(=O)O)C(N)=O)[C@@H](C)O)C(C)(C)C)NC(=O)[C@H](CC(N)=O)NC(=O)C(C)(C)NC(=O)[C@H](CCCNC(=N)N)NC(=O)[C@H](CCC(N)=O)NC1=O)[C@@H](C)O [PSM-0210] (Ac-T[Aib]FCQR[Aib]NC[Tle]TD-NH2; disulfide 4-9) — what was its IC50?
Result: < 0.2 µM

Request: IC50 for CC(=O)N[C@H](C(=O)NC(C)(C)C(=O)N[C@@H](Cc1ccccc1)C(=O)N[C@H]1CSSC[C@@H](C(=O)N[C@H](C(=O)N[C@H](C(=O)N[C@@H](CC(=O)O)C(N)=O)[C@@H](C)O)C(C)(C)C)NC(=O)[C@H](CC(N)=O)NC(=O)C(C)(C)NC(=O)[C@H](CCC(=O)O)NC(=O)[C@H](CCCCN)NC1=O)[C@@H](C)O [PSM-0253] (Ac-T[Aib]FCKE[Aib]NC[Tle]TD-NH2; disulfide 4-9) ?
Result: 0.2 to 1.26 µM

Request: What IC50 value was documented for this molecule, CC(=O)N[C@H](C(=O)NC(C)(C)C(=O)N[C@@H](Cc1ccccc1)C(=O)N[C@H]1CSSC[C@@H](C(=O)N[C@H](C(=O)N[C@H](C(=O)NCCCOCCOCCOCCCNC(=O)CCC(=O)N[C@H](CCCCNC(=O)CN2CCN(CC(=O)O)CCN(CC(=O)O)CCN(CC(=O)O)CC2)C(N)=O)[C@@H](C)O)C(C)(C)C)NC(=O)[C@H](CC(N)=O)NC(=O)[C@H](C)NC(=O)[C@H](CCCNC(=N)N)NC(=O)[C@H](CCCCN)NC1=O)[C@@H](C)O [PSM-0231] (Ac-T[Aib]FCKRANC[Tle]T-{TtdsdLys(DOTA)NH2}; disulfide 4-9) ?
Result: < 0.2 µM

Request: Which IC50 is listed for CC(=O)N[C@H](C(=O)N[C@@H](C)C(=O)N[C@@H](Cc1ccccc1)C(=O)N[C@H]1CSSC[C@@H](C(=O)N[C@H](C(=O)N[C@H](C(=O)N[C@@H](CC(=O)O)C(=O)NCCCOCCOCCOCCCNC(=O)CCC(=O)N[C@H](CCCCNC(=O)CN2CCN(CC(=O)O)CCN(CC(=O)O)CCN(CC(=O)O)CC2)C(N)=O)[C@@H](C)O)C(C)(C)C)NC(=O)[C@H](CC(N)=O)NC(=O)[C@H](C)NC(=O)[C@H](CCCNC(=N)N)NC(=O)[C@H](CCCCN)NC1=O)[C@@H](C)O [PSM-0266] (Ac-TAFCKRANC[Tle]TD-{TtdsdLys(DOTA)NH2}; disulfide 4-9) ?
Result: < 0.2 µM
